# METHOD_SUMMARY: Ex vivo biodistribution in wild-type mice
# MEASUREMENT_PARAMETERS: mouse, heart, total radioactivity, 75 min p.i., ex vivo gamma counting, tracer alone, mean ± SD, n: PentixaFor 3, 18F 5, 68Ga 4, 177Lu 3, read-out: heart uptake
Non-standard residues stand in square brackets, D forms with d. Residues, ends and D or L forms follow the SMILES beside them. Groups on a side chain read outwards from the residue. *: point of attachment. DOTA = O=C(O)CN1CCN(CC(=O)O)CCN(CC(=O)*)CCN(CC(=O)O)CC1; 2Nal = N[C@@H](Cc1ccc2ccccc2c1)C(=O)O; dNMeOrn = CN[C@H](CCCN)C(=O)O; 4Amb = NCc1ccc(C(=O)O)cc1
OBSERVED_PROPERTY: SUV at 1.25 h (SUV)

MOLECULE	OBSERVED_PROPERTY	MEASUREMENT_UNITS	OBS_VALUE
CN1C(=O)[C@@H](Cc2ccc(O)cc2)NC(=O)CNC(=O)[C@H](Cc2ccc3ccccc3c2)NC(=O)[C@H](CCCNC(=N)N)NC(=O)[C@H]1CCCNC(=O)c1ccc(CNC(=O)CN2CCN(CC(=O)O)CCN(CC(=O)O)CCN(CC(=O)O)CC2)cc1 [[^68Ga]PentixaFor, metal not drawn] (cyclo([dY][dNMeOrn]([4Amb-DOTA])R[2Nal]G))	SUV at 1.25 h	SUV	0.3

Reference source for all entries: paper PMC8537445
